tested on: PC-3 [JPC-3]; experiment: relative viability (nuclei count vs DMSO), 5 days (fraction); higher = more cells survive; conditions: first compound 0.1581 µM
Flag rule - relative viability less than 0.5 flags TRUE; the remaining entries get FALSE.

• COc1cc2nccc(Oc3ccc(NC(=O)Nc4cc(C)on4)c(Cl)c3)c2cc1OC [Tivozanib] + Nc1nc2[nH]cc(CCc3ccc(C(=O)N[C@@H](CCC(=O)O)C(=O)O)cc3)c2c(=O)[nH]1 [Pemetrexed] (partner 0.2 µM) = FALSE
• COc1cc2nccc(Oc3ccc(NC(=O)Nc4cc(C)on4)c(Cl)c3)c2cc1OC [Tivozanib] + Cc1nc(NC(=O)N2CCC[C@H]2C(N)=O)sc1-c1ccnc(C(C)(C)C(F)(F)F)c1 [Alpelisib] (partner 2 µM) = FALSE
• Nc1ccn([C@@H]2O[C@H](CO)[C@@H](O)[C@@H]2O)c(=O)n1 [Cytarabine] + CCNC(=O)c1noc(-c2cc(C(C)C)c(O)cc2O)c1-c1ccc(CN2CCOCC2)cc1 [Luminespib] (partner 0.01 µM) = TRUE
• COc1cc2nccc(Oc3ccc(NC(=O)Nc4cc(C)on4)c(Cl)c3)c2cc1OC [Tivozanib] + Nc1ncn([C@H]2C[C@H](O)[C@@H](CO)O2)c(=O)n1 [Decitabine] (partner 2 µM) = FALSE
• Nc1ccn([C@@H]2O[C@H](CO)[C@@H](O)[C@@H]2O)c(=O)n1 [Cytarabine] + CS(=O)(=O)CCNCc1ccc(-c2ccc3ncnc(Nc4ccc(OCc5cccc(F)c5)c(Cl)c4)c3c2)o1 [Lapatinib] (partner 2 µM) = TRUE
• Nc1ccn([C@@H]2O[C@H](CO)[C@@H](O)[C@@H]2O)c(=O)n1 [Cytarabine] + CC(=O)Nc1cccc(-n2c(=O)n(C3CC3)c(=O)c3c(Nc4ccc(I)cc4F)n(C)c(=O)c(C)c32)c1 [Trametinib] (partner 0.02 µM) = TRUE
• COc1cc2nccc(Oc3ccc(NC(=O)Nc4cc(C)on4)c(Cl)c3)c2cc1OC [Tivozanib] + COc1cc2c(Oc3ccc(NC(=O)C4(C(=O)Nc5ccc(F)cc5)CC4)cc3F)ccnc2cc1OCCCN1CCOCC1 [Foretinib] (partner 0.25 µM) = FALSE
• COc1cc2nccc(Oc3ccc(NC(=O)Nc4cc(C)on4)c(Cl)c3)c2cc1OC [Tivozanib] + CS(=O)(=O)CCNCc1ccc(-c2ccc3ncnc(Nc4ccc(OCc5cccc(F)c5)c(Cl)c4)c3c2)o1 [Lapatinib] (partner 2 µM) = TRUE
• Nc1ccn([C@@H]2O[C@H](CO)[C@@H](O)[C@@H]2O)c(=O)n1 [Cytarabine] + Cc1cc(Nc2cc(N3CCN(C)CC3)nc(Sc3ccc(NC(=O)C4CC4)cc3)n2)n[nH]1 [Tozasertib] (partner 0.1 µM) = FALSE

----------
tested on: PC-14; assay: relative viability (nuclei count vs DMSO), 5 days (fraction); higher = more cells survive; settings: first compound 0.000632 µM
relative viability for assorted molecules
MEASUREMENT_KIND: relative viability

- CC(=O)O[C@@]12CO[C@@H]1C[C@H](O)[C@@]1(C)C(=O)[C@H](O)C3=C(C)[C@@H](OC(=O)[C@H](O)[C@@H](NC(=O)OC(C)(C)C)c4ccccc4)C[C@@](O)([C@@H](OC(=O)c4ccccc4)[C@H]21)C3(C)C [Docetaxel] + COc1cccc2cc(-c3nc([C@H]4CC[C@H](C(=O)O)CC4)n4ncnc(N)c34)[nH]c12 [OSI-027] (partner 0.5 µM): 0.549
- CC(=O)O[C@@]12CO[C@@H]1C[C@H](O)[C@@]1(C)C(=O)[C@H](O)C3=C(C)[C@@H](OC(=O)[C@H](O)[C@@H](NC(=O)OC(C)(C)C)c4ccccc4)C[C@@](O)([C@@H](OC(=O)c4ccccc4)[C@H]21)C3(C)C [Docetaxel] + Cc1nc(Nc2ncc(C(=O)Nc3c(C)cccc3Cl)s2)cc(N2CCN(CCO)CC2)n1 [Dasatinib] (partner 0.075 µM): 0.188
- CC(=O)O[C@@]12CO[C@@H]1C[C@H](O)[C@@]1(C)C(=O)[C@H](O)C3=C(C)[C@@H](OC(=O)[C@H](O)[C@@H](NC(=O)OC(C)(C)C)c4ccccc4)C[C@@](O)([C@@H](OC(=O)c4ccccc4)[C@H]21)C3(C)C [Docetaxel] + CS(=O)(=O)CCNCc1ccc(-c2ccc3ncnc(Nc4ccc(OCc5cccc(F)c5)c(Cl)c4)c3c2)o1 [Lapatinib] (partner 2 µM): 0.417
